meta.source: patent US7253285B2

PROPERTY_LABEL: melting point

melting point measured on `COc1ccnc2ccc(/C=C3\SC(NCc4cccs4)=NC3=O)cc12` = 258 to 262 °C

melting point measured on `COc1ccnc2ccc(/C=C3\SC(N[C@H]4C[C@@H]4c4ccccc4)=NC3=O)cc12` = 251 to 253 °C

melting point measured on `O=C1N=C(N[C@H]2C[C@@H]2c2ccccc2)S/C1=C\c1ccc2nccc(OCC3CCCCC3)c2c1` = 223 to 227 °C

melting point measured on `O=C1N=C(NCc2cccs2)S/C1=C\c1ccc2nccc(Oc3ccccc3)c2c1` = 239 to 240.5 °C

melting point measured on `CCOc1ccnc2ccc(/C=C3\SC(NCc4cccs4)=NC3=O)cc12` = 226 to 228 °C

With those in mind, consider the next molecule.
melting point measured on `CCOc1ccnc2ccc(/C=C3\SC(N[C@H]4C[C@@H]4c4ccccc4)=NC3=O)cc12` = 266 to 268 °C

###

- MEASURED_TARGET: recombinant human CDK1/Cyclin B complex (Homo sapiens)
- Construct: E. coli M15 for the Rb substrate
- Sequence (P06493 whole entry): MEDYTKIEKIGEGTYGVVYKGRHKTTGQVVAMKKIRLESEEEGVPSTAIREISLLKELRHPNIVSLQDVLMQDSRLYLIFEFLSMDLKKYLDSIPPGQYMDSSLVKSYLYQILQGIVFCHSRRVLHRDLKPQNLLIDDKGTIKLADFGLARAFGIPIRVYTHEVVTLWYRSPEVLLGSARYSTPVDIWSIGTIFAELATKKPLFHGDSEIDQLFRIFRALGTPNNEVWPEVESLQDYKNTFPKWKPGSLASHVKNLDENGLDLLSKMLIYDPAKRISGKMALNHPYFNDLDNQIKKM
- Sequence (P14635 whole entry partner): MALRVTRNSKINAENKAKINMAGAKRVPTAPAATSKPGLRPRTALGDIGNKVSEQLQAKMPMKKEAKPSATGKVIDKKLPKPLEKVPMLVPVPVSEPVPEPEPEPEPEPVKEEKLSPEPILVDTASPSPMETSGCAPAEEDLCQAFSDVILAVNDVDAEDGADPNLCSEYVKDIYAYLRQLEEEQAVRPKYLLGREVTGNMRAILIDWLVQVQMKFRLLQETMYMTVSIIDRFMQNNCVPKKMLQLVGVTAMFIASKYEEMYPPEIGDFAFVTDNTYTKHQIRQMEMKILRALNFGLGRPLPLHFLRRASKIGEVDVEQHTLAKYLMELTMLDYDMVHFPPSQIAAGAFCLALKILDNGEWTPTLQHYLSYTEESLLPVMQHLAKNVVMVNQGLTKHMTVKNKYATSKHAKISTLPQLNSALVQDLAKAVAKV
- ASSAY: CDK1/Cyclin B kinase assay (FlashPlate or HTRF)
- EXPERIMENTAL_CONTEXT: Rb protein substrate, Ki=IC50/(1+[S]/Km)
pKi: recorded values
Scale: negative log10 of molar concentration, which is what pKi denotes.

See these solved cases before continuing.
pKi measured on `O=C1N=C(N[C@H]2C[C@@H]2c2ccccc2)S/C1=C\c1ccc2nccc(OCC3CCCCC3)c2c1` = 5.93

pKi measured on `NC1=NC(=O)/C(=C/c2ccc3nccc(Oc4ccccc4)c3c2)S1` = 6.47

pKi measured on `CCOc1ccnc2ccc(/C=C3\SC(N[C@H]4C[C@@H]4c4ccccc4)=NC3=O)cc12` = 7.41

With those in mind, consider the next compound.
pKi measured on `CCSc1ccnc2ccc(/C=C3\SC(N[C@H]4C[C@@H]4c4ccccc4)=NC3=O)cc12` = 7.43

###

- MEASURED_TARGET: recombinant human CDK1/Cyclin B complex (Homo sapiens)
- Construct: E. coli M15 for the Rb substrate
- ASSAY: CDK1/Cyclin B kinase assay (FlashPlate or HTRF)
- EXPERIMENTAL_CONTEXT: Rb protein substrate, Ki=IC50/(1+[S]/Km)
- Experimental: To determine inhibition of CDK1 activity, either FlashPlate™ (NEN™-Life Science Products) assay or HTRF assay was performed. Both types of kinase assays were carried out using recombinant human CDK1/Cyclin B complex. […] Purified Rb fusion protein stocks were quantitated for protein concentration, aliquoted, and stored at −70° C. […] The Homogeneous Time Resolved Fluorescence (HTRF) kinase assay was carried out in 96-well polypropylene plates (BD Biosciences, Bedford, Mass.). […]
Where a name gives a salt, the structure may show the parent alone.
PROPERTY_LABEL: pKi
Scale: negative log10 of molar concentration, which is what pKi denotes.

See these solved cases before continuing.
pKi measured on O=C1N=C(NCc2cccs2)S/C1=C\c1ccc2nccc(N3CCOCC3)c2c1 [Example 15] = 6.68

pKi measured on CCOc1ccnc2ccc(/C=C3\SC(NCc4cnc(C)cn4)=NC3=O)cc12 [Example 30] = 6.55

pKi measured on CCOc1ccnc2ccc(/C=C3\SC(NCCc4cccc(F)c4)=NC3=O)cc12 [Example 40] = 7.89

With those in mind, consider the next compound.
pKi measured on COCCOc1ccnc2ccc(/C=C3\SC(N)=NC3=O)cc12 [Example 20, trifluoroacetate salt] = 7.49
